method-description: physchem
Format: physicochemical
observable: logP

1. Cn1nc(C(F)(F)F)c(Br)c1C(=O)Nc1ccc(Cl)c(C(=O)NCC=CCl)c1 [Ik-22]; 3.20^a)
2. CSc1c(F)cc(NC(=O)c2c(C(F)(F)F)c(C(F)(F)C(F)(F)F)nn2C)cc1C(=O)NCc1ccccc1 [Ik-192]; 4.15^a)
3. Cn1nc(C(F)(F)C(F)(F)C(F)(F)C(F)(F)F)c(I)c1C(=O)Nc1ccc(Cl)c(C(=O)NCC=CCl)c1 [Ik-269]; 4.27^a)
4. O=C(NC1CC1)c1cc(NC(=O)c2cnc(C(F)(F)C(F)(F)F)nc2C(F)(F)C(F)(F)F)ccc1Cl [Ib-33]; 3.64^a)
5. CCSCC(C)NC(=O)c1cc(NC(=O)c2c(C(F)(F)F)c(C(F)(F)C(F)(F)F)nn2C)ccc1Cl (centres unmarked) [Ik-89]; 4.09^a)
6. O=C(NCC(F)(F)F)c1cc(NC(=O)c2cnc(C(F)(F)F)nc2C(F)(F)F)ccc1Cl [Ib-4]; 3.14^a)
7. CN(C(=O)c1c(C(F)(F)F)c(C(F)(F)C(F)(F)F)nn1C)c1ccc(Cl)c(C(=O)NC2CC2)c1 [Ik-132]; 3.30^a)
8. Cn1nc(C(F)(F)C(F)(F)F)c(C(F)(F)F)c1C(=O)Nc1cccc(C(=O)NC2CC2)c1 [Ik-13]; 3.15^a)
